All figures here come from patent US20140234345A1.

experiment: Cell viability of healthy PBMC
quantity_kind: viability at 2.265 µM

input: Consider the compound CC/C=C\C/C=C\C/C=C\C/C=C\C/C=C\C/C=C\CCC(=O)O[C@H]1C=C2c3cc4c(c(O)c3C(=O)N[C@H]2[C@H](O)[C@@H]1O)OCO4 [Compound I(a), Narciclasine 2-Hydroxy DHA Conjugate] and give its recorded viability at 2.265 µM.
output: > 60%

----------
assay: Cell viability of healthy PBMC
quantity_kind: viability

input: Return the recorded viability value; entry: CC/C=C\C/C=C\C/C=C\C/C=C\C/C=C\C/C=C\CCC(=O)O[C@H]1C=C2c3cc4c(c(O)c3C(=O)N[C@H]2[C@H](O)[C@@H]1O)OCO4 [Compound I(a), Narciclasine 2-Hydroxy DHA Conjugate]
output: ~90%
